These measurements were taken from patent US20250026765A1.

- EXPERIMENTAL_TARGET: human recombinant 5-HT2C receptor (Homo sapiens (Human))
- Sequence (P28335 33-458): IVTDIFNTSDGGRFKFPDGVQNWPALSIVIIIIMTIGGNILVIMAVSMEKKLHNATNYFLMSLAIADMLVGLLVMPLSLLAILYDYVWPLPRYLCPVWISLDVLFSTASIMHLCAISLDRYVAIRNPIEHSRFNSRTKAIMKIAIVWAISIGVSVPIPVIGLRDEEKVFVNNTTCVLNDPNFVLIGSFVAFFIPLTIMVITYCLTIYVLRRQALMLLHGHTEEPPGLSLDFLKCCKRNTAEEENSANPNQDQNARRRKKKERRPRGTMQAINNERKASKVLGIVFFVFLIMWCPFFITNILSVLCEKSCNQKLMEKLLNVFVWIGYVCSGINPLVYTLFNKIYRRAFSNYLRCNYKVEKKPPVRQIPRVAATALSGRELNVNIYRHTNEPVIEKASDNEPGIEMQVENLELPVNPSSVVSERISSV
- ASSAY_PROTOCOL: 5-HT2C receptor binding inhibition test ([3H]-Mesulergine)
- CONDITION_DETAILS: Jump-In HEK cell membrane, 37° C. 2 hours, read-out: h-5-HT2C Ki
pKi: −log10 of the molar value.
# reported pKi; entries follow
OBSERVED_PROPERTY: pKi

COMPOUND | RESULT
COc1ccc(CN(Cc2coc(C)n2)C2=NOC3(CCN(C)CC3)N2)nc1 [Compound I-121] | 7.00 to 8.00
Cc1cccc(CN(Cc2ccc(OCC(C)C)cc2)C2=NOC3(CCN(C)CC3)N2)n1 [Compound I-013] | 7.00 to 8.00
Cc1ncc(CN(Cc2ccc(OCC(C)C)cc2)C2=NOC3(CCN(C)CC3)N2)o1 [Compound I-053] | > 8.00
CC(C)COc1ccc(CN(C2=NOC3(CCN(C)CC3)N2)C(C)c2ccc(F)cc2)cc1 (single isomer, unassigned) [Compound I-074] | 6.30 to 7.00
Cc1nc(CN(Cc2ccc(OCC(C)C)cc2F)C2=NOC3(CCNCC3)N2)co1 [Compound I-131] | > 8.00
CN1CCC2(CC1)NC(N(Cc1ccc(OCC(F)(F)C(F)F)cc1)Cc1ccn(C)n1)=NO2 [Compound I-010] | > 8.00
Cc1nc(CN(Cc2ccc3ncccc3c2)C2=NOC3(CCN(C)CC3)N2)co1 [Compound I-096] | 7.00 to 8.00
CCCCc1ccc(CN(Cc2coc(C)n2)C2=NOC3(CCN(C)CC3)N2)cc1 [Compound I-077] | > 8.00
Cc1nc(CN(Cc2ccc(OCC(C)C)cc2)C2=NOC3(CCNCC3)N2)co1 [Compound I-048] | > 8.00
CC(C)COc1ccc(CN(Cc2ccccn2)C2=NOC3(CCN(C)CC3)N2)cc1 [Compound I-012] | 7.00 to 8.00

###

- EXPERIMENTAL_TARGET: human recombinant 5-HT2C receptor (Homo sapiens (Human))
- ASSAY_PROTOCOL: 5-HT2C receptor binding inhibition test ([3H]-Mesulergine)
- CONDITION_DETAILS: Jump-In HEK cell membrane, 37° C. 2 hours, read-out: h-5-HT2C Ki
pKi: −log10 of the molar value.
OBSERVED_PROPERTY: pKi

COMPOUND | EXPERIMENTAL_TARGET | RESULT
CC(C)COc1ccc(CN(Cc2coc(-c3ccccc3)n2)C2=NOC3(CCN(C)CC3)N2)cc1 | human recombinant 5-HT2C receptor (Homo sapiens (Human)) | 6.30 to 7.00
CC(C)COc1ccc(CN(Cc2ccc(F)cc2)C2=NOC3(CCN(C)CC3)N2)cc1 [Compound I-055] | human recombinant 5-HT2C receptor (Homo sapiens (Human)) | 7.00 to 8.00
CC(C)COc1ccc(CN(Cc2cnn(C)n2)C2=NOC3(CCN(C)CC3)N2)cc1F | human recombinant 5-HT2C receptor (Homo sapiens (Human)) | > 8.00
CC(C)COc1ccc(CN(Cc2cnn(C)n2)C2=NOC3(CCN(C)CC3)N2)cc1 | human recombinant 5-HT2C receptor (Homo sapiens (Human)) | > 8.00
CCCc1ccc(CN(Cc2coc(C)n2)C2=NOC3(CCN(C)CC3)N2)cc1F | human recombinant 5-HT2C receptor (Homo sapiens (Human)) | > 8.00
Cc1nc(CN(Cc2ccc(OCC(C)C)cc2)C2=NOC3(CCN(C)CC3)N2)c(C)o1 | human recombinant 5-HT2C receptor (Homo sapiens (Human)) | 7.00 to 8.00
Cc1nc(CN(Cc2ccc(OCC(F)(F)C(F)F)cc2)C2=NOC3(CCN(C)CC3)N2)co1 | human recombinant 5-HT2C receptor (Homo sapiens (Human)) | > 8.00
Cc1nc(CN(Cc2ccc(OCC3CC(F)(F)C3)cc2)C2=NOC3(CCN(C)CC3)N2)co1 | human recombinant 5-HT2C receptor (Homo sapiens (Human)) | > 8.00
